biological target: mouse serum albumin (MSA) (Mus musculus); assay: Presaturation equilibrium dialysis, fraction unbound in mouse serum albumin solution; settings: 3% mouse serum albumin, value (%CV)
Sequence (P07724 25-608): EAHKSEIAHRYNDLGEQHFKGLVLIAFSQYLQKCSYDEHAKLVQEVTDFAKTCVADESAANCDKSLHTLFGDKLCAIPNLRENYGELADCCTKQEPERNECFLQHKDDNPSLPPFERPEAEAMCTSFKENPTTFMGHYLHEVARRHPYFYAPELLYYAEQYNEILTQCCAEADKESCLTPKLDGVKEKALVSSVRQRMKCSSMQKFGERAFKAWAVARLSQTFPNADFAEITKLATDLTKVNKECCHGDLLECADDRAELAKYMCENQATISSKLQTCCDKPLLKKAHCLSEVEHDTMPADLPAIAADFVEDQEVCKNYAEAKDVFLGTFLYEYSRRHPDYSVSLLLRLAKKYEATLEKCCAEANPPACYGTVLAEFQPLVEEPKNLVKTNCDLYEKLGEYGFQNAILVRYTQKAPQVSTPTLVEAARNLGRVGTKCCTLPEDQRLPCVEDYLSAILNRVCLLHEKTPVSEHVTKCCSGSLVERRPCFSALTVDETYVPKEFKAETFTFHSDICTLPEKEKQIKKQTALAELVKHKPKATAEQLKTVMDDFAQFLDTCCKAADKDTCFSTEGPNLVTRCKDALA
Reported Metric: Fraction unbound (fu) and %CV, MSA 3%

Query: I would be grateful if you could share the reported Fraction unbound (fu) and %CV, MSA 3% for O=S(=O)(O)C(F)(F)C(F)(F)C(F)(F)C(F)(F)C(F)(F)C(F)(F)C(F)(F)C(F)(F)F .
Result: 0.00102 (19%)

Query: Lookup O=C(O)C(F)(F)C(F)(F)C(F)(F)C(F)(F)C(F)(F)C(F)(F)C(F)(F)C(F)(F)C(F)(F)F
Result: 0.000839 (26%)

Query: Lookup O=C(O)C(F)(F)C(F)(F)C(F)(F)C(F)(F)F
Result: 0.0809 (11%)

Query: Lookup O=S(=O)(O)C(F)(F)C(F)(F)C(F)(F)C(F)(F)F
Result: 0.0321 (11%)

Query: Lookup O=S(=O)(O)CCC(F)(F)C(F)(F)C(F)(F)C(F)(F)C(F)(F)C(F)(F)F [6:2 FtS, 6:2 fluorotelomer sulfonate]
Result: 0.0091 (9%)

Query: Lookup O=C(O)C(F)(F)C(F)(F)C(F)(F)F
Result: 0.206 (23%)
